system: Escherichia coli; experiment: Antibacterial activity against Escherichia coli after 24 hrs by MTT colorimetric method; format: functional
resultType: MIC

Known MIC results, listed for orientation:
{"columns": ["compound", "targetSystem", "MIC"],
 "data": [
  ["Oc1ccc(Cl)cc1/C=N/CC1CCCCC1", "Escherichia coli", "> 50 µg/mL"],
  ["Oc1ccc(Cl)cc1/C=N/CCN1CCNCC1", "Escherichia coli", "> 50 µg/mL"]
]}

Please list MIC recorded for the compound CC1(/N=C/c2cc(Cl)ccc2O)CCC(C(C)(C)/N=C/c2cc(Cl)ccc2O)CC1 (stereo not drawn)
> 50 µg/mL

Please list MIC recorded for the compound `CCOC(=O)N1CCC(/N=C/c2cc(Cl)ccc2O)CC1`
> 50 µg/mL

Data origin, for the record: ChEMBL document CHEMBL1144592
